These data points were gathered from paper PMC6968775.

# assayOverview: Pharmacokinetics after iv and oral administration, P‐S difference method, wild‐type mice
# Format: in vivo
# conditionInfo: male, FVB (wild-type), mouse, systemic plasma (abdominal vein), po, 1 mg/kg, wild‐type mice; p.o. (ciprofloxacin 1, nitrofurantoin 2, topotecan 1, sulfasalazine 5 mg/kg); systemic (sys) plasma; read-out: AUC 0→∞ (AUCsys)
# Protocol: Male Mdr1a/1b(−/−) and Bcrp(−/−) mice, and WT mice of the same genetic background (FVB) were obtained from Taconic Farms (Germantown, NY, USA). […] Food and water were available ad libitum. […] After organic layer was evaporated at 60°C, the resultant residues were dissolved in a mobile phase. […] All drugs were analyzed by HPLC system (Shimadzu LC‐10AS pump, Shimadzu SIL‐10A autosampler) equipped with a reverse‐phase column (COSMOSIL 5C18‐AR‐II, 3.5‐μm […], 4.6 × 150 mm). […]
Counter-ions that a name gives are not always drawn.
measuredAttribute: AUC(0-inf)
Please state the number and follow it with the unit.

Consider the compound CC[C@@]1(O)C(=O)OCc2c1cc1n(c2=O)Cc2cc3c(CN(C)C)c(O)ccc3nc2-1 [topotecan, Topotecan HCl] and give its measured AUC(0-inf).
0.37 µM·h
